- Assay name: qHTS assay to identify small molecule agonists of the TGF-beta/Smad signaling pathway - cell viability counter screen (AID 1346829); also: top concentration of the series differs between compounds; % is scaled to controls: 0 for no effect and ±100 for the full control effect; nearly all actives have a fitted effect of over 45% in size
- Stated conditions: SBE-bla HEK293T viability, CellTiter-Glo luminescence, 5 h; series mostly up to 76.8 µM
- Text: National Center for Advancing Translational Sciences [NCATS] NIH Chemical Genomics Center [NCGC] U.S. Environmental Protection Agency [EPA] National Institutes of Environmental Health Sciences [NIEHS] National Toxicology Program [NTP] U.S. Food and Drug Administration [FDA] Transforming growth factor beta (TGF-beta) superfamily consists of a large number of structurally related dimeric proteins that act as hormones or local mediators in regulating a wide range of biological functions. […]
Inconclusive results are not listed. Calls of active or inactive are those of the source. Calls follow the shape of the dose curve; as a rule, active = well fitted cell-killing curve with a large enough effect in the repeat runs; inconclusive = weak or mixed curves, or effect the other way; inactive = flat fitted curve, though single readings scatter.
Property: activity change, negative = cytotoxicity

>>> reported_measurement("C[C@@H]1CC[C@H]2C(C)(C)[C@H]3C[C@@]12CC[C@@]3(C)O")
"inactive"
>>> reported_measurement("O=C(Oc1ccccc1)c1cccc(C(=O)Oc2ccccc2)c1")
"inactive"
>>> reported_measurement("N[C@@H](CSSC[C@H](N)C(=O)O)C(=O)O")
"1.93% [at 0.29 µM] (inactive)"
>>> reported_measurement("CC(CN(C)C)CN1c2ccccc2CCc2ccccc21 (stereo not drawn)")
"inactive"
>>> reported_measurement("CCCCOc1ccc(C(=O)CCN2CCCCC2)cc1")
"inactive"
>>> reported_measurement("CC(C)=CC1CC(C)CCO1 (stereo not drawn)")
"inactive"
>>> reported_measurement("C#CC(O)CCC (stereo not drawn)")
"inactive"
>>> reported_measurement("Oc1ccc(-c2ccc(O)cc2)cc1")
"inactive"
>>> reported_measurement("CN(C)CCCN1c2ccccc2Sc2ccc(C(F)(F)F)cc21")
"inactive"
>>> reported_measurement("CSc1c(Cl)c(Cl)c(Cl)c(Cl)c1Cl")
"inactive"
>>> reported_measurement("CCN1CCN(c2cc(-c3ccc(F)cc3)c3c(n2)CCCCCC3)CC1")
"-0.583% [at 15.8 µM] (inactive)"
>>> reported_measurement("CN1CCN(C2Cc3ccccc3Sc3ccc(Cl)cc32)CC1 (stereo not drawn)")
"inactive"
>>> reported_measurement("CCOC(=O)C1=C(C)NC(C)=C(C(=O)OCC)C1c1ccccc1/C=C/C(=O)OC(C)(C)C")
"inactive"

====

- Assayed target: Cytochrome P450 2C9 (Homo sapiens)
- Assay name: Cytochrome P450 Family 2 Subfamily C Member 9 (CYP2C9) small molecule antagonists: luciferase reporter qHTS assay (AID 1671198); also: nearly all actives have a fitted effect of over 50% in size
- Stated conditions: P450-Glo CYP2C9 enzyme assay, luciferin luminescence; series mostly up to 115 µM
Results filed as inconclusive are left out. Active and inactive are the calls of the source. Calls come from the whole dose curve; as a rule, active = well fitted inhibition curve with a large enough effect in the repeat runs; inconclusive = weak or mixed curves; inactive = no such curve, though single readings can be large or run the other way.
Labels: active, inactive

>>> qualitative_label("CCCC(C)CCC(C)=O (centres undefined)")
"inactive"
>>> qualitative_label("CCCCCCC(C)Nc1ccc(Nc2ccccc2)cc1 (centres undefined)")
"active"
>>> qualitative_label("CCN(CC)c1ccc(N)cc1")
"active"
>>> qualitative_label("O=C1OC(OC(=O)c2cccnc2Nc2cccc(C(F)(F)F)c2)c2ccccc21 (centres undefined)")
"active"
>>> qualitative_label("Cc1ccc(N)cc1O")
"active"
>>> qualitative_label("COC(=O)NCCC[Si](OC)(OC)OC")
"inactive"
>>> qualitative_label("CCCCCCCC(C)=O")
"inactive"
>>> qualitative_label("CC(C)c1cccc(C(C)C)c1N1C(=O)c2ccc(O)cc2C1=O")
"active"
>>> qualitative_label("CCOCOCC")
"inactive"
